# reported GI50; entries follow
system: U-251; experiment: NCI tumour cell line growth inhibition, 48 h
Activity calls are given as the source filed them. No stated cut-off is given here; in the data, active = GI50 up to about 1.1 µM and inactive = higher.

{"columns": ["molecular string", "GI50"],
 "data": [
  ["CO/N=C(\\C)c1cccc(Nc2c3ccccc3nc3occc23)c1", "14.2 µM (inactive)"],
  ["N/C(=N\\O)N/N=C\\c1ccccc1O", "8.34 µM (inactive)"],
  ["Cc1ccc(-c2nc3cc(Cl)ccc3[nH]2)cc1", "> 100 µM (inactive)"],
  ["COc1cc(OC)c(/C=C/c2cnc3ccccc3n2)c(OC)c1", "> 10 µM (inactive)"]
]}

* * *

# reported GI50; entries follow
system: COLO 205; experiment: NCI tumour cell line growth inhibition, 48 h
Where a name gives a salt, the structure may show the parent alone. Active and inactive are the calls of the source. Rule as the data show it: active = GI50 up to about 1.1 µM and inactive = higher.

{"columns": ["compound", "GI50"],
 "data": [
  ["CC1C=CC(C(N)C(=O)O)O1 (stereo not drawn)", "> 100 µM (inactive)"],
  ["NC(=S)SC1=NC(=O)C2(NN1)c1ccccc1-c1ccccc12", "> 10 µM (inactive)"],
  ["C=C(C)CCC(=O)[C@](C)(O)[C@H]1[C@H](O)C[C@@]2(C)[C@@H]3CCc4c(cc(OC5OC(CO)C(O)C(O)C5O)c(O)c4C)C3(C)C(=O)C[C@]12C (stereo partly drawn)", "> 100 µM (inactive)"],
  ["COc1nc2nccnc2c(=O)n1C", "> 10 µM (inactive)"],
  ["CC(C)=CCc1c(O)ccc2ccc(=O)oc12", "> 100 µM (inactive)"],
  ["C[N+](C)(C)CC1CCCC(C[N+](C)(C)C)C1O (stereo not drawn)", "> 100 µM (inactive)"],
  ["COc1cc(OC)c2c(=O)cc(-c3ccc(OC)c(OC)c3OC)oc2c1", "> 100 µM (inactive)"],
  ["O=C1Nc2ccccc2/C1=N/Nc1nc(-c2ccc(Cl)c(Cl)c2)cs1", "29.9 µM (inactive)"],
  ["O=C1C=C/C(=N\\c2ccc3c(c2)C(Br)c2ccccc2-3)O1 (stereo not drawn)", "> 100 µM (inactive)"],
  ["CCc1ccc2oc(-c3cc(O)c(-c4nc5cc(CC)ccc5o4)cc3O)nc2c1", "> 100 µM (inactive)"],
  ["Cc1c(-c2coc(-c3ccccc3)n2)c(=O)n(-c2ccccc2)n1C", "78.3 µM (inactive)"],
  ["O=C(NCCCNCCCNC(=O)c1cc(-c2ccccc2)nc2ccccc12)c1cc(-c2ccccc2)nc2ccccc12", "1.9 µM (inactive)"],
  ["O=C(O)CCC(=O)Nc1ccc2ccccc2c1", "> 100 µM (inactive)"],
  ["Cc1ccc2[nH]/c(=N/S(=O)(=O)c3cc(C)c(Cl)cc3S)[nH]c2c1", "58.5 µM (inactive)"],
  ["Cc1ccc(-c2nc3cc(Cl)ccc3[nH]2)cc1", "71.6 µM (inactive)"],
  ["CC(=O)N(C)c1ccc(Nc2cc(C)nc3ccc4nc[nH]c4c23)cc1 [ACODAZOLE HYDROCHLORIDE]", "4.38 µM (inactive)"],
  ["COc1cc(C(=O)Oc2c(C#N)sc3c2c(=O)n(-c2ccccc2)c(=S)n3-c2ccccc2)cc(OC)c1OC", "15.8 µM (inactive)"],
  ["O=C(CN1CCOCC1)CC(O)(C(F)(F)F)C(F)(F)F", "> 100 µM (inactive)"],
  ["O=C(c1ccccc1)N1C(=S)N(c2ccc([N+](=O)[O-])cc2)C(=N/c2ccccc2)/C1=N\\c1ccccc1", "> 100 µM (inactive)"],
  ["CCOC(=O)C1C(=O)CC(=O)C2CCCCC21 (stereo not drawn)", "> 100 µM (inactive)"],
  ["COc1ccc(/C=C2\\CNC/C(=C\\c3ccc(OC)cc3)C2=O)cc1", "49.4 µM (inactive)"],
  ["C[Si](C)(C)/C=C/CN1C(=O)CCC1O (stereo not drawn)", "> 100 µM (inactive)"],
  ["CCOP(=O)(OCC)Oc1c(OC)c2[nH]c(C(=O)OC)cc2c2c(C(=O)O)c[nH]c12", "> 100 µM (inactive)"],
  ["Cc1ccccc1-n1c(=O)nc2n(-c3ccc(C(C)(C)C)cc3)c3ccccc3cc-2c1=O", "18.5 µM (inactive)"],
  ["CCC(C)C(C(=O)N/N=C1/SCC(=O)N1C)C(=O)N/N=C1/SCC(=O)N1C (stereo not drawn)", "> 100 µM (inactive)"],
  ["N/C(=N\\O)N/N=C\\c1ccccc1O", "5.81 µM (inactive)"],
  ["CC(C)C1=CC(=O)C(C)(C2C(O)CC3(C)C4CC=C5C(CCC(OC6OC(CO)C(O)C(O)C6OC6OC(C)C(O)C(O)C6O)C5(C)C)C4(C)C(=O)CC23C)O1 (stereo not drawn)", "> 100 µM (inactive)"],
  ["O=C(O)c1c[nH]cc1C(=O)O", "> 100 µM (inactive)"]
]}

* * *

tested on: SF-268; test: NCI tumour cell line growth inhibition, 48 h
Calls of active or inactive are those of the source. Cut-off read from the data, not from the text of the source: active = GI50 up to about 1.1 µM and inactive = higher. Where a SMILES comes first, the peptide text is derived from it. The star is where a group is joined. OSu = O=C1CCC(=O)N1O*; OBn = c1ccc(CO*)cc1; Bn = c1ccc(C*)cc1
readout type: GI50

{"columns": ["compound", "readout value"],
 "data": [
  ["CCn1c2c(c3ccccc31)C(c1ccccc1)CC1C(=O)N(c3ccccc3)C(=O)C21 (centres undefined)", "> 100 µM (inactive)"],
  ["C[C@H](NC(=O)CNC(=O)CCCCCC(=O)NCC(=O)N[C@@H](C)C(=O)OCc1ccccc1)C(=O)OCc1ccccc1", "> 100 µM (inactive)"],
  ["C/C(=N\\NS(=O)(=O)c1ccc(C)cc1)C(CN(C)C)C(c1ccccc1)c1c(O)c2ccccc2oc1=O (centres undefined)", "> 100 µM (inactive)"],
  ["COCOC1/C=C/CCCCC2=C(C)C=C(C1)O2 (centres undefined)", "> 100 µM (inactive)"],
  ["CN(C)S(=O)(=O)c1nc(Cl)c2nc[nH]c2n1", "> 100 µM (inactive)"],
  ["C1=CC(=[N+]2N=C(c3ccccc3)CC2c2ccccc2)C=CC1=C1SC(c2ccccc2)(c2ccccc2)c2ccccc21.[O-][Cl+3]([O-])([O-])[O-] (centres undefined)", "> 100 µM (inactive)"],
  ["S=C1SCN(C2CCCCCCCCCCC2)CN1C1CCCCCCCCCCC1", "> 100 µM (inactive)"],
  ["CC(C)CC(NC(=O)C(N)CCC(=O)OCc1ccccc1)C(=O)NC(COCc1ccccc1)C(=O)NC(Cc1ccccc1)C(=O)ON1C(=O)CCC1=O (centres undefined) (H-E(OBn)LS(Bn)F-OSu; configuration not given here)", "48.3 µM (inactive)"],
  ["CC(C)(C)c1cc(CCCCCCCC2(CCCCCCCc3cc(C(C)(C)C)cc(C(C)(C)C)c3)OC(COCCOCCCCCC#N)C(COCCOCCCCCC#N)O2)cc(C(C)(C)C)c1 (centres undefined)", "> 100 µM (inactive)"],
  ["NC(=O)C(=O)C(c1ccccc1)S(=O)(=O)Cc1ccccc1 (centres undefined)", "> 100 µM (inactive)"],
  ["Cn1c(S)nnc1-c1csc(-c2ccc(Cl)cc2)n1", "29.3 µM (inactive)"],
  ["COc1cc(/C=C(\\OC(C)=O)c2ccc3c(c2)OCO3)cc(OC)c1OC", "20 µM (inactive)"],
  ["CC1C2CC(C/C2=N/O)C1(C)C (centres undefined)", "> 100 µM (inactive)"],
  ["O=[N+]([O-])c1cc(/C=N\\NS(=O)(=O)c2ccc(Cl)cc2)c(O)c([N+](=O)[O-])c1", "38 µM (inactive)"]
]}

* * *

# reported GI50; entries follow
test system: SF-295; test: NCI tumour cell line growth inhibition, 48 h
Active and inactive are the calls of the source. Rule as the data show it: active = GI50 up to about 1.1 µM and inactive = higher.

{"columns": ["compound", "target desc", "GI50"],
 "data": [
  ["O=C1c2ccccc2-c2ccc(N(Cc3ccc(Br)cc3)Cc3ccc(Br)cc3)cc21", "SF-295", "> 100 µM (inactive)"],
  ["COc1ccc2nc3c(c(N)c2c1)C1CCC3C1(C)C (centres undefined)", "SF-295", "20.6 µM (inactive)"],
  ["NC(=O)C(=O)N/N=C1/c2ccccc2CC1C1(O)C(=O)Nc2c(Cl)cc(Cl)cc21 (centres undefined)", "SF-295", "> 100 µM (inactive)"],
  ["CC(CSC(=N)N)C(N)=O (centres undefined)", "SF-295", "> 100 µM (inactive)"]
]}

* * *

tested on: NCI-H23; assay: NCI tumour cell line growth inhibition, 48 h
Activity calls are given as the source filed them. Cut-off read from the data, not from the text of the source: active = GI50 up to about 1.1 µM and inactive = higher.
# reported GI50; entries follow

{"columns": ["compound", "target desc", "GI50"],
 "data": [
  ["Cc1ccc(S(=O)(=O)N2CCNCCN(S(=O)(=O)c3ccc(C)cc3)CCN(S(=O)(=O)c3ccc(C)cc3)CC2)cc1", "NCI-H23", "> 100 µM (inactive)"],
  ["Cc1ccc(-c2nc3cc(Cl)ccc3[nH]2)cc1", "NCI-H23", "> 100 µM (inactive)"],
  ["C=CCNC(=S)OCCCCCCCCCC", "NCI-H23", "19.8 µM (inactive)"],
  ["O=C1CSC(c2ccc([N+](=O)[O-])cc2)N1c1ccc(-n2c(-c3ccccc3)nc3ccccc3c2=O)cc1 (centres undefined)", "NCI-H23", "> 100 µM (inactive)"],
  ["CC(C)=CCc1c(O)ccc2ccc(=O)oc12", "NCI-H23", "55.5 µM (inactive)"],
  ["c1cc2nnc1SCCCSc1ccc(nn1)SCCCSc1ccc(nn1)SCCCS2", "NCI-H23", "> 100 µM (inactive)"],
  ["CC(C)c1cccc(C(C)C)c1NC(=O)C(=O)C(C(=O)c1ccccc1-c1ccccc1)C1OC(=O)c2ccccc21 (centres undefined)", "NCI-H23", "1.25 µM (inactive)"],
  ["CCN1C=C/C(=C\\C=C\\c2cc[n+](CC)c3ccccc23)c2ccccc21", "NCI-H23", "2.87 µM (inactive)"],
  ["Brc1ccc2[nH]cc(-c3nc(-c4c[nH]c5ccccc45)cs3)c2c1", "NCI-H23", "2.47 µM (inactive)"]
]}
